Origin of measurements: patent US12421249B2

Target: APOL1 G1 (Homo sapiens, UniProt O14791, I384M/S342G)
Sequence (O14791 28-398 S342G/I384M): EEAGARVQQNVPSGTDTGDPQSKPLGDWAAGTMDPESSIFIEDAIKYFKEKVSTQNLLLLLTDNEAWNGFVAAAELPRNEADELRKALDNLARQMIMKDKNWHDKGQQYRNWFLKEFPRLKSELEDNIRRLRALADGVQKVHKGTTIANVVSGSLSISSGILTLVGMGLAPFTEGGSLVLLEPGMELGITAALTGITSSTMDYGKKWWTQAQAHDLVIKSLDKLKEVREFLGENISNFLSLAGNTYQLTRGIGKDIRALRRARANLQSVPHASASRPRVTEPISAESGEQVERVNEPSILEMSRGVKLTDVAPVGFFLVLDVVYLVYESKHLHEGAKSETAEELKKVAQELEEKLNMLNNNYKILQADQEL
Assay: Trypanosoma brucei brucei Lysis Assay Using APOL1 Recombinant Protein (AlamarBlue viability readout)
Type: cell-based
Conditions: Trypanosome Assay; IP50 = IC50 for cell proliferation; read-out: Trypanosome Assay IP50
pIC50: −log10 of the molar value.
Observed property: pIC50

C[C@H]1C[C@@]2(C[C@@H](c3cn(C)nn3)N1)OC[C@@H](O)c1cc(Cl)sc12 [Compound 174]	> 7.30

Indicate the recorded pIC50 value for this molecule: C[C@H]1C[C@@]2(C[C@@H](c3cnc(-c4cnn(C)c4)nc3)N1)OCCc1cc(Cl)sc12 (stereo in doubt) [Compound 61] > 7.30

Please give measured pIC50 of the following entry: CC1CC2(CC(c3ccc4[nH]ncc4c3)N1)OCCc1cc(Cl)sc12 (stereo not shown) [Compound 35] > 7.30

Tell me its pIC50 given C[C@H]1C[C@@]2(C[C@@H](c3cc4n(n3)CCCO4)N1)OCCc1cc(Cl)sc12 (racemic) [Compound 131] as the entry. 6.30 to 7.30

Entry CCc1cc2c(s1)C(C)COC21C[C@@H](c2cn(C)nn2)N[C@@H](C)C1 (stereo in doubt) [Compound 10] needs its pIC50 filled in; supply it. 6.30 to 7.30

For the molecule C[C@H]1CC2(CC(c3cn(C)cn3)N1)OCC(O)c1cc(Cl)sc12 (stereo in doubt) [Compound 178] , give its reported pIC50. > 7.30

Please list pIC50 recorded for the molecule CCC1CC2(CC(c3cn(C)nn3)N1)OCCc1cc(C(F)(F)F)sc12 (stereo not shown) [Compound 187] 6.30 to 7.30

Fill in pIC50 for record C[C@H]1C[C@@]2(C[C@@H](c3cn4c(n3)COCC4)N1)OCCc1cc(Cl)sc12 (racemic) [Compound 74] 6.30 to 7.30

* * *

Target: UniProt O14791
Assay: Multi-Tox Assay (MultiTox-Fluor Multiplex Cytotoxicity Assay in tet-inducible APOL1 T-REx-HEK293 cells; Table 46 does not say which APOL1 variant G0/G1/G2)
Conditions: IP50 = IC50 for cell proliferation, APOL1 variant not given
pIC50: −log10 of the molar value.
Observed property: pIC50

These solved cases illustrate the format of a correct answer.
COCCOCCn1cc([C@@H]2C[C@]3(C[C@H](C)N2)OC[C@@H](O)c2cc(Cl)sc23)nn1	6.30 to 7.30
C#C[C@@H]1C[C@]2(C[C@H](C)N1)OCC(F)(F)c1cc(Cl)sc12	< 6.30
C[C@H]1C[C@@]2(C[C@@H](c3cc(-c4ccccn4)n[nH]3)N1)OCCc1cc(Cl)sc12 (racemic)	> 7.30
Cc1cc(O)ncc1[C@@H]1C[C@]2(C[C@H](C)N1)OCCc1cc(Cl)sc12 (racemic)	> 7.30
C[C@@H]1CC2(C[C@H](C)N1)OCCc1cc(C3CCCCC3)sc12 (single isomer, unassigned)	< 6.30

Name the recorded pIC50 of the molecule listed here: C[C@H]1C[C@@]2(C[C@@H](c3cn(Cc4cccc5c4OCCO5)nn3)N1)OC[C@@H](O)c1cc(Cl)sc12 6.30 to 7.30

Item C[C@H]1C[C@@]2(C[C@@H](c3cccc(C#N)n3)N1)OCCc1cc(Cl)sc12 (racemic) : provide pIC50 > 7.30

Please look at this molecule and report its pIC50: CC1CC2(CC(c3cnn(C)n3)N1)OCCc1cc(Cl)sc12 (stereo not drawn) > 7.30

Respond only with pIC50 recorded for CCn1cc(Cn2cc([C@@H]3C[C@]4(C[C@H](C)N3)OCC(F)(F)c3cc(Cl)sc34)nn2)cn1 > 7.30

Quote pIC50 reported for C[C@H]1C[C@@]2(C[C@@H](c3n[nH]c4ccccc34)N1)OCCc1cc(Cl)sc12 (racemic) please. < 6.30

Find the measured pIC50 of COc1ccc(C2CC3(CC(C)N2)OCCc2cc(Cl)sc23)nc1 (stereo not drawn) and report it. > 7.30

State, in one line, measured pIC50 of C[C@H]1C[C@@]2(C[C@@H](c3cn(C)c(=O)n(C)c3=O)N1)OCCc1cc(Cl)sc12 (racemic) 6.30 to 7.30
